# Substrate: O=c1[nH]c(=O)c2[nH]c(=O)[nH]c2[nH]1
# experimental details: purified protein
# Type: biochemical, Latimeria menadoensis
# run conditions: 50 mM sodium borate pH 8.0, 30 °C, 15-120 µM uric acid
reported metric: kcat (s⁻¹)

protein: L. menadoensis uricase A132C/A225C mutant (enzyme, UniProt M3XGK0 1-306, looked up, His6 tag joined by two residues from the XhoI site, as in m1; source: E. coli BL21(DE3), purified (Ni-NTA IMAC, gel filtration); not shown: His6, C-terminal, kept) MSHYVSSTRFQKDTDVEFVRTGYGKNIVKVLHIKREGKTHYIKEVEVAVQLALKSRKDYLYGDNSDIIPTDTMKNTVHALAKLKGINTIEEFAMDICEHFLTSFNHVTRANTYVEEAPWKRMEKNEVKHVHCFIYSPEATRFCEVEHHQNEPPVVHSGIKDMKVLKTTQSGFEGFVKDRFTTLPEVTDRCFSTVIYSKWLYNRSKNIDFDAAWKTVYDVIIEKFCGPYECGEYSPSVQKTLYETQVLCLNRVPEIEEVEIVMPNKHYFTIDMSKIGIVNKDEVLLPLDNPSGNITGTVRRKAHSKL
reported value: 58.2

protein: L. menadoensis uricase, wild type (LM-UOX-6His) (enzyme, UniProt M3XGK0 1-306, looked up, Uricase (urate oxidase) of Latimeria menadoensis, 306 amino acids; synthetic cDNA amplified with primers from the start codon to the last codon (no stop codon), cloned NdeI/XhoI into pET20b(+); The His6 tag is joined to the protein by two residues from the XhoI site; also called WT; WT LM-UOX; source: E. coli BL21(DE3), purified (Ni-NTA IMAC, gel filtration); not shown: His6, C-terminal, kept) MSHYVSSTRFQKDTDVEFVRTGYGKNIVKVLHIKREGKTHYIKEVEVAVQLALKSRKDYLYGDNSDIIPTDTMKNTVHALAKLKGINTIEEFAMDICEHFLTSFNHVTRANTYVEEAPWKRMEKNEVKHVHAFIYSPEATRFCEVEHHQNEPPVVHSGIKDMKVLKTTQSGFEGFVKDRFTTLPEVTDRCFSTVIYSKWLYNRSKNIDFDAAWKTVYDVIIEKFAGPYECGEYSPSVQKTLYETQVLCLNRVPEIEEVEIVMPNKHYFTIDMSKIGIVNKDEVLLPLDNPSGNITGTVRRKAHSKL
reported value: 29.9

protein: L. menadoensis uricase N289C mutant (enzyme, UniProt M3XGK0 1-306, looked up, Uricase (urate oxidase) of Latimeria menadoensis, 306 amino acids, same construct as the wild type (pET20LM-UOX) with N289C by site-directed mutagenesis; His6 tag joined by two residues from the XhoI site, as in m1; source: E. coli BL21(DE3), purified (Ni-NTA IMAC, gel filtration); not shown: His6, C-terminal, kept) MSHYVSSTRFQKDTDVEFVRTGYGKNIVKVLHIKREGKTHYIKEVEVAVQLALKSRKDYLYGDNSDIIPTDTMKNTVHALAKLKGINTIEEFAMDICEHFLTSFNHVTRANTYVEEAPWKRMEKNEVKHVHAFIYSPEATRFCEVEHHQNEPPVVHSGIKDMKVLKTTQSGFEGFVKDRFTTLPEVTDRCFSTVIYSKWLYNRSKNIDFDAAWKTVYDVIIEKFAGPYECGEYSPSVQKTLYETQVLCLNRVPEIEEVEIVMPNKHYFTIDMSKIGIVNKDEVLLPLDCPSGNITGTVRRKAHSKL
reported value: 34.1

Source of measurements: paper PMC6471336
